biological target: microRNA 21; assay: Inhibition of miR-21 RNA in human A498 cells assessed as potentiation of topotecan-induced cytotoxicity by measuring topotecan IC50 at 10 uM after 72 hrs by XTT assay (reference value: 1 uM); type: cell-based
Measured Endpoint: pIC50
Numbers only, as −log10 of the molar value.

The reported pIC50 of the compound `C#CCOc1ccc(-c2noc(-c3nnn(-c4cccc(/C(C)=N/O)c4)c3N)n2)cc1` was 7.05

###

Exercise: for every item that follows, state its recorded fold change (FC).
system: microRNA 21; test: Inhibition of miR-21 RNA in human HeLa cells harboring miR-21 binding sequence in 3'-UTR of firefly luciferase gene assessed as increase in luciferase expression incubated for 48 hrs by Bright-Glo luciferase reporter gene assay relative to control; type: cell-based
One number for each entry.

Use these answered entries as a reference point.
record_smiles=COc1ccccc1-n1nnc(-c2nc(-c3cccs3)no2)c1N measured_endpoint="fold change (FC)" reported_measurement=2.02
record_smiles=Nc1c(-c2nc(-c3cccs3)no2)nnn1-c1cccc(OC(F)(F)F)c1 measured_endpoint="fold change (FC)" reported_measurement=1.4
record_smiles=COc1cc(OC)cc(-n2nnc(-c3nc(-c4cccs4)no3)c2N)c1 measured_endpoint="fold change (FC)" reported_measurement=2.3
record_smiles=CC(C)c1cccc(-n2nnc(-c3nnc(-c4cccs4)o3)c2N)c1 measured_endpoint="fold change (FC)" reported_measurement=1.72
record_smiles=Nc1c(-c2nc(-c3cccs3)no2)nnn1-c1cccc(CO)c1 measured_endpoint="fold change (FC)" reported_measurement=1.67

From here, focus on the item given below.
Measured on microRNA 21, `CCc1cccc(-n2nnc(-c3nc(-c4cccs4)no3)c2N)c1` has a documented fold change (FC) of 1.63
